Every entry's value here was drawn from PubChem BioAssay (Tox21).

Test: qHTS RealTime-Glo MT Cell Viability Assay in HEK293 cells - 8 hour (AID 1224887); further: nearly all actives have a fitted effect of over 50% in size
Details: RealTime-Glo luminescence; series mostly up to 76.8 µM
Records with an inconclusive call do not appear. Activity calls are given as the source filed them. The call rests on the fitted dose curve; in most records, active means well fitted cell-killing curve with a large enough effect in the repeat runs; inconclusive means weak or mixed curves, or effect the other way; inactive means flat fitted curve, though single readings scatter.
Classes used: true for active, false for inactive

[[record]]
compound = "COC(=O)C1=C(C)NC(C)=C(C(=O)OC(C)(C)CN(C)CCC(c2ccccc2)c2ccccc2)C1c1cccc([N+](=O)[O-])c1 (stereo unspecified)"
classname = "false"

[[record]]
compound = "Cc1ccc(Cl)cc1N"
classname = "false"

[[record]]
compound = "O=C1[C@@H]2[C@H]3CC[C@H](C3)[C@@H]2C(=O)N1CCCCN1CCN(c2ncccn2)CC1"
classname = "false"

[[record]]
compound = "COc1cc(OC)c2ccc(=O)oc2c1"
classname = "false"

[[record]]
compound = "O=c1[nH][nH]c(=O)c2cc([N+](=O)[O-])ccc12"
classname = "false"

[[record]]
compound = "NC(=O)c1ccccc1[N+](=O)[O-]"
classname = "false"

[[record]]
compound = "CCC(CO)(CO)[N+](=O)[O-]"
classname = "false"

[[record]]
compound = "CCCCCCCCCCCCCCCC(=O)OCC"
classname = "false"

[[record]]
compound = "c1ccc(CCCc2ccncc2)cc1"
classname = "false"

[[record]]
compound = "CC(C)c1ccc(C#N)cc1"
classname = "false"

[[record]]
compound = "CCCCCCOC(=O)CCCCC"
classname = "false"

[[record]]
compound = "FC(F)(F)C(F)(F)C(F)(F)C(F)(F)CCI"
classname = "false"

[[record]]
compound = "CC(CO)(CO)C(=O)O"
classname = "false"

[[record]]
compound = "C/C(C=O)=C\\c1ccccc1"
classname = "false"

[[record]]
compound = "CCSC(=O)N(CC)CC"
classname = "false"

[[record]]
compound = "O=C(c1ccccc1)c1ccc(O)cc1"
classname = "false"

[[record]]
compound = "CC(=O)OCC1=C(C(=O)O)N2C(=O)[C@@H](NC(=O)CSc3ccncc3)[C@H]2SC1"
classname = "false"

[[record]]
compound = "CC1CCCC(=O)C1=O (stereo unspecified)"
classname = "false"

[[record]]
compound = "COc1ccc(C(=O)NCc2ccc(OCCN(C)C)cc2)cc1OC"
classname = "false"

[[record]]
compound = "Nc1nc2ccc(OC(F)(F)F)cc2s1"
classname = "false"

[[record]]
compound = "COc1ccc(CCN(C)CCCN2CCc3cc(OC)c(OC)cc3CC2=O)cc1OC"
classname = "false"

[[record]]
compound = "Cc1ccc2c(c1)CCCN2"
classname = "false"

[[record]]
compound = "CC(C)C(=O)OCCOc1ccccc1"
classname = "false"

[[record]]
compound = "CSSc1ccoc1C"
classname = "false"

[[record]]
compound = "Nc1ccc(N=Nc2ccc(N)cc2)cc1"
classname = "false"

[[record]]
compound = "COC(=O)CC(C(C)=O)C(=O)OC (stereo unspecified)"
classname = "false"

[[record]]
compound = "O=C(NC(Cc1cc(=O)[nH]c2ccccc12)C(=O)O)c1ccc(Cl)cc1 (stereo unspecified)"
classname = "false"

[[record]]
compound = "O=c1[nH]c2cc(C(F)(F)F)c(N3CCOCC3)cc2n(CP(=O)(O)O)c1=O"
classname = "false"

[[record]]
compound = "CCN(CC)CCOc1ccccc1C(=O)CCc1ccccc1"
classname = "true"

[[record]]
compound = "O=[N+]([O-])C1(Br)COCOC1"
classname = "true"

[[record]]
compound = "O=CNNC=O"
classname = "false"

